tested on: SK-MEL-5 melanoma; test: NCI tumour cell line growth inhibition, 48 h
property measured: TGI

compound: CC(C)CC1CC2C(=O)N(c3ccccc3)C(=O)C2c2[nH]c3ccccc3c21 (stereo not given)
recorded result: > 100 µM

### Prompt Which measured TGI value corresponds to CC(=O)/C=C1/C(=O)C(CC(C)C)=C1CC(C)C ?
### Response > 100 µM

### Prompt Which measured TGI value corresponds to C=Cc1c(-c2ccccc2)cnc2[nH]c3ccccc3c12 ?
### Response > 50 µM

### Prompt Which measured TGI value corresponds to NNC(=O)C(=O)N/N=C1\CCCC1C(=O)CCC(=O)Nc1cccc(Cl)c1 (stereo not given) ?
### Response > 100 µM

### Prompt Which measured TGI value corresponds to COc1ccc2[nH]c(=O)cc(C)c2c1[N+](=O)[O-] ?
### Response > 100 µM

### Prompt Which measured TGI value corresponds to O=C(CC(=O)n1nc(-c2ccccc2)c(N=Nc2ccc([N+](=O)[O-])cc2)c1-c1ccccc1)Nc1ccc(Cl)cc1 ?
### Response 22.3 µM

### Prompt Which measured TGI value corresponds to CCOC(=O)C(c1ccsc1)P(=O)(OCC)OCC (stereo not given) ?
### Response 29.4 µM

### Prompt Which measured TGI value corresponds to O=C1CC[C@@H]2[C@H]3CCC(=O)c4c3c(c3cccc(O)c3c4O)O[C@@]23C(=O)c2cccc(O)c2C(O)=C13 ?
### Response > 100 µM

### Prompt Which measured TGI value corresponds to CC1=NN(c2ccccc2Cl)C2(C1)C(Cl)C(=O)N2c1nc2ccccc2s1 (stereo not given) ?
### Response > 100 µM

### Prompt Which measured TGI value corresponds to O=C1C=CC(=O)N1c1ccc2ccccc2c1 ?
### Response 30.4 µM

---

test system: 786-0 renal; experiment: NCI tumour cell line growth inhibition, 48 h
property measured: GI50

// solved cases for GI50 follow
molecule: CCOC(=O)c1c(C)n(Cc2ccc(Cl)cc2Cl)c2c1cc(O)c1[nH]c(Cc3ccccc3)nc12
GI50: 3.67 µM
--
molecule: O=S(=O)([O-])c1ccc(C=Nc2ccccc2)c([O-])c1.O=S(=O)([O-])c1ccc(C=Nc2ccccc2)c([O-])c1.[Co+2]
GI50: 94.7 µM

### Prompt Which measured GI50 value corresponds to Cc1c(C(=O)Nc2ccc(Oc3ccnc4cc(OCC(C)(C)O)ccc34)c(F)c2)c(=O)n(-c2ccccc2)n1C ?
### Response 5.2 µM

### Prompt Which measured GI50 value corresponds to O=C1CC[C@@H]2[C@H]3CCC(=O)c4c3c(c3cccc(O)c3c4O)O[C@@]23C(=O)c2cccc(O)c2C(O)=C13 ?
### Response > 100 µM

### Prompt Which measured GI50 value corresponds to O=C(/C=C/c1cccc(Cl)c1)c1ccccc1 ?
### Response 10.6 µM

### Prompt Which measured GI50 value corresponds to CCn1cnc(C[C@H](NC(=O)[C@@H](NC(=O)Nc2cc(C(F)(F)F)cc(C(F)(F)F)c2)C(C)(C)C)C(=O)OC)c1 ?
### Response > 10 µM

### Prompt Which measured GI50 value corresponds to CC(=O)OC1C(C)OC(Oc2c(-c3ccc(O)cc3)oc3cc(O)cc(O)c3c2=O)C(O)C1OC(C)=O (stereo not drawn) ?
### Response 48.2 µM

### Prompt Which measured GI50 value corresponds to N#C/C(=C\c1ccccn1)c1nc2ccccc2o1 ?
### Response 35.3 µM

### Prompt Which measured GI50 value corresponds to C=CC(=O)N1CCN(c2nc(OC[C@@H]3CCCN3C)nc3c(F)c(-c4nc(N)cc(C)c4C(F)(F)F)c(Cl)cc23)[C@@H](C)C1 ?
### Response 3.6 µM

### Prompt Which measured GI50 value corresponds to COc1cccc(C2=C(c3cn(C)c4c(C)cccc34)C(=O)NC2=O)c1 ?
### Response 15.8 µM

### Prompt Which measured GI50 value corresponds to Nc1ccccc1SC(CC(=O)c1ccccc1)c1c(Cl)cccc1Cl (stereo not drawn) ?
### Response 9.73 µM

### Prompt Which measured GI50 value corresponds to CC(C)(C)c1ccc(OCCCCCCCN2CCNCC2)cc1 ?
### Response 1.63 µM

### Prompt Which measured GI50 value corresponds to COc1cccc(/C=C2\COc3ccc(O)c(O)c3C2=O)c1OC ?
### Response 1.89 µM

---

List of TGI values.
test system: OVCAR-5 ovarian; test: NCI tumour cell line growth inhibition, 48 h

// solved cases for TGI follow
molecule: CCc1cn(C2CC(CO)C(CO)S2)c(=O)[nH]c1=O (stereo unspecified)
measured target: OVCAR-5 ovarian
TGI: > 100 µM
--
molecule: Oc1ccc(Br)cc1C=Nc1ccc(Oc2ccc(N=Cc3cc(Br)ccc3O)cc2)cc1
measured target: OVCAR-5 ovarian
TGI: > 19.6 µM
--
molecule: Fc1nc(-c2c3ccccc3c3sc4ccccc4n23)nc(N2CCOCCOCCOCCOCC2)n1
measured target: OVCAR-5 ovarian
TGI: > 100 µM
--
molecule: C=CCC(NCc1ccccc1)c1cn(C(=O)OCC)c2ccccc12 (stereo unspecified)
measured target: OVCAR-5 ovarian
TGI: 44.6 µM
--
molecule: O=C1C[C@@H]2[C@@H](C=CC23CCCC3)N1O
measured target: OVCAR-5 ovarian
TGI: > 100 µM
--
molecule: O=C1Sc2sc(=S)sc2SC1c1ccccc1 (stereo unspecified)
measured target: OVCAR-5 ovarian
TGI: > 100 µM
--
molecule: CC[n+]1c(/C=C/c2cc(C(=O)OC)n3c2sc2ccccc23)sc2ccccc21
measured target: OVCAR-5 ovarian
TGI: 37.3 µM
--
molecule: Cc1cc(N)c2cc(NC(=O)/C=C\c3ccccc3Cl)ccc2n1
measured target: OVCAR-5 ovarian
TGI: 2.69 µM

### Prompt Which measured TGI value corresponds to COC(=O)c1ccc(C)cc1C1CN=NC12Cc1c(C)cccc1C2=O (stereo unspecified) ?
### Response > 100 µM

### Prompt Which measured TGI value corresponds to c1ccc(Nc2nnc(-c3ccccc3Nc3ccccc3-c3nnc(Nc4ccccc4)s3)s2)cc1 ?
### Response > 100 µM

### Prompt Which measured TGI value corresponds to Cc1ccc2c(n1)C(=O)c1cc(C)c(C)cc1C2=O ?
### Response > 100 µM

---

system: OVCAR-4 ovarian; experiment: NCI tumour cell line growth inhibition, 48 h
List of TGI values.
Unit µM implied. Number only.

// solved cases for TGI follow
compound: O=C(N/N=C/c1cc(Cl)cc(Cl)c1[O-])c1ccccc1O.O=C(N/N=C/c1cc(Cl)cc(Cl)c1[O-])c1ccccc1O.[Mn+2]
units: µM
TGI: 1.58

compound: CC[C@@]1(O)C(=O)OCc2c1cc1n(c2=O)Cc2cc3c(N)c(OC)ccc3nc2-1
units: µM
TGI: 1.36

compound: COc1ccc(C(=O)c2[nH]c(Nc3cc(C)ccn3)c(C(=S)Nc3ccccc3)c2N)cc1
units: µM
TGI: 36.5

compound: Nc1ccccc1SC(CC(=O)c1ccccc1)c1c(Cl)cccc1Cl (stereo not given)
units: µM
TGI: 18.4

compound: C=C1C(=O)OC2/C=C(CO)/C=C\C3OC3(C)CC(OC(=O)/C(C)=C/COC(C)=O)C12 (stereo not given)
units: µM
TGI: 16.4

compound: O=[N+]([O-])c1cc2c(ccc3ccccc32)o1
units: µM
TGI: 11

compound: NC(=O)c1c(-c2ccccc2)c(-c2ccccc2)cc2c(=O)c3ccccc3[nH]c12
units: µM
TGI: 30.4

compound: CCOC(=O)C1=C(C)N(Cc2ccccc2)C2(O)C=CC(=O)C3C(=O)N(c4ccccc4)C(=O)C132 (stereo not given)
units: µM
TGI: 6.45

compound: CCOC(=O)c1ccc(N[C@@H]2c3cc4c(cc3C(c3cc(OC)c(O)c(OC)c3)[C@H]3C(=O)OCC32)OCO4)cc1 (stereo not given in full)
units: µM
TGI: 12.6

compound: N#C/C(=C\c1ccccn1)c1nc2ccccc2o1
units: µM
TGI: 34.2

### Prompt Which measured TGI value corresponds to COc1cc2c(cc1OCCCN1CCOCC1)N=C[C@@H]1CCCN1C2=O ?
### Response 40.1

### Prompt Which measured TGI value corresponds to O=[N+]([O-])/C(C(Cl)=C(Cl)Cl)=C(\NCc1ccccc1)Sc1ccccc1 ?
### Response 75.4

### Prompt Which measured TGI value corresponds to COc1cc2c(/C=C3/C(=O)Nc4cc(C)c(O)cc43)c(Cl)[nH]c2cc1C ?
### Response 24.1

---

tested on: LXFL 529 NSCLC; assay: NCI tumour cell line growth inhibition, 48 h
property measured: TGI

compound: COc1ccc2[nH]c(=O)cc(C)c2c1[N+](=O)[O-]
recorded result: > 100 µM

compound: O=C1CC2=CCCC2O1 (stereo not given)
recorded result: > 100 µM

compound: COc1cc(C(C)c2cc3c(cc2OCCCCCOc2cc4c(cc2C(C)c2cc(OC)c(OC)c(OC)c2)OCO4)OCO3)cc(OC)c1OC (stereo not given)
recorded result: > 100 µM

### Prompt Which measured TGI value corresponds to C=C1C(=O)OC2/C=C(\CO)C3OC3C3OC3(C)CC(OC(=O)/C(=C/C)COC(C)=O)C12 (stereo not given) ?
### Response 2.17 µM

### Prompt Which measured TGI value corresponds to Nc1ccc(C(=O)NN2C(=O)C(Cl)C2c2ccc(O)cc2)cc1 (stereo not given) ?
### Response 31.7 µM

### Prompt Which measured TGI value corresponds to CCCOC(=O)C1C(c2ccc(OC)cc2)NC(c2ccc(OC)cc2)C(C(=O)OCCC)S1(=O)=O (stereo not given) ?
### Response > 100 µM

### Prompt Which measured TGI value corresponds to CC(C)CC1CC2C(=O)N(c3ccccc3)C(=O)C2c2[nH]c3ccccc3c21 (stereo not given) ?
### Response > 100 µM
